Values compiled from patent US20060275835A1.

MEASUREMENT_TARGET: mGluR5 (Homo sapiens, UniProt P41594)
Construct: expressed in transfected cells
Sequence (P41594 21-1212): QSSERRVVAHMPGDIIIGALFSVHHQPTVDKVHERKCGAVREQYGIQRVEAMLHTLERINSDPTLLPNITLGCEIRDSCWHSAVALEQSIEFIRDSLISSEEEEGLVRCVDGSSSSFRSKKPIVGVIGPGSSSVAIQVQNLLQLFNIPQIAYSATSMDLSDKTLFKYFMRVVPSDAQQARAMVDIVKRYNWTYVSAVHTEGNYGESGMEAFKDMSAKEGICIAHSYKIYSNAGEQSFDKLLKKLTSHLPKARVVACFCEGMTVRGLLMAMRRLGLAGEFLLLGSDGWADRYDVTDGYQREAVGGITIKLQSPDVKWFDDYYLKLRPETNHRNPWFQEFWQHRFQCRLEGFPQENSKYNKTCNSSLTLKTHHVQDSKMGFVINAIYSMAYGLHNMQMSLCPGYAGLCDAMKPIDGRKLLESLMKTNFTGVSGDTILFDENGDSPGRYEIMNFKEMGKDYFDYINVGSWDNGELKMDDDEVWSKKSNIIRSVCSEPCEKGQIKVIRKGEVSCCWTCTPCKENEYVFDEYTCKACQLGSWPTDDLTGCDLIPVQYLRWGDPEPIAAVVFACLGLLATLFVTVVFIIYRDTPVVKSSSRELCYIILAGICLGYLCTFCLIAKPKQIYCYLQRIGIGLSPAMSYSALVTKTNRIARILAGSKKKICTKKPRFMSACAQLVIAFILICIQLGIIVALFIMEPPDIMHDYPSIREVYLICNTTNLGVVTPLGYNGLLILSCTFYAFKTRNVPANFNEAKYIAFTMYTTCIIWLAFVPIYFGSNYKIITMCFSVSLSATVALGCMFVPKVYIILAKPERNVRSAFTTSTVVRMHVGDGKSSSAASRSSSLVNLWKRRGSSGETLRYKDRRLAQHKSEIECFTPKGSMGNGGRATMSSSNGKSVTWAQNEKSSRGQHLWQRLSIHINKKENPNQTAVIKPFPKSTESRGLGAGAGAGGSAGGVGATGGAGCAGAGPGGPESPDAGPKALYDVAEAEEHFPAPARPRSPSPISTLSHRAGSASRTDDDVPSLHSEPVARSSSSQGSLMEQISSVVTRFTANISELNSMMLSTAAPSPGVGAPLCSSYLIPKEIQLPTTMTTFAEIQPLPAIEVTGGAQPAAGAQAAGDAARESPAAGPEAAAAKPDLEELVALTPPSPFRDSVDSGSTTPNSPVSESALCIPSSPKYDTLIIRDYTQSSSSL
MEASUREMENT_DESCRIPTION: β-lactamase reporter gene assay in mGluR5CHONFAT co-expressing mGLAST
Type: cell-based
TEST_PARAMETERS: dose response in the presence of 10 μM positive allosteric modulator
Description: Aurora transcription based reporter cell lines were used to develop reporter gene assays for the mGluRs. The cell line, CHONFAT-β-lactamase, reports signaling through Gq-coupled receptors via an increase in intracellular calcium. […] The production of β-lactamase resulting from the downstream signaling events of receptor activation is detected by loading cells with a fluorescent dye, CCF2-AM, a substrate cleavable by the β-lactamase enzyme. […]
ATTRIBUTE_MEASURED: EC50 (µM)
Number in µM, nothing else.

Short answer for N[C@@H](Cn1oc(=O)[nH]c1=O)C(=O)O [quisqualate] : EC50 was 0.015
